Target: Muscarinic acetylcholine receptor M1 (Homo sapiens)
Sequence (P11229 whole entry): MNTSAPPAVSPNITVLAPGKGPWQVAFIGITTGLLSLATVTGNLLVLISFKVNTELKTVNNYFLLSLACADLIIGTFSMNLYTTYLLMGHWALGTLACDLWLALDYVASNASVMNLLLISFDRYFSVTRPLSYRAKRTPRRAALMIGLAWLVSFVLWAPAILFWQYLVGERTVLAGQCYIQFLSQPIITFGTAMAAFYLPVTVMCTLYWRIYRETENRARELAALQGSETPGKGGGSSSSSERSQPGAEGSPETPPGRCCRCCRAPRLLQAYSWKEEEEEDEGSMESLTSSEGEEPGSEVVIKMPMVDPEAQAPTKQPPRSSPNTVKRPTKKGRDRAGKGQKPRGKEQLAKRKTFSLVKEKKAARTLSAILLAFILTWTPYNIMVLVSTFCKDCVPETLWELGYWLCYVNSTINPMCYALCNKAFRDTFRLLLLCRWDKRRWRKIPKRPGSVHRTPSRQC
pKd: −log10 of the molar value.
molecules and their reported pKd
observable: pKd

INSERT INTO results (smiles_string, system_name, numeric_result) VALUES
  ('C[C@@H]1OC[C@H]2C[C@H]3CCCC[C@@H]3[C@@H](/C=C/[C@H]3CCC[C@H](C)N3C)[C@H]21', 'Muscarinic acetylcholine receptor M1 (Homo sapiens)', 6.78),
  ('C[C@@H]1O[C@H](O)[C@H]2C[C@H]3CCCC[C@@H]3[C@@H](/C=C/[C@H]3CCC[C@H](C)N3C)[C@H]21', 'Muscarinic acetylcholine receptor M1 (Homo sapiens)', 6.37),
  ('C[C@H](O)[C@H]1[C@@H](CO)C[C@H]2CCCC[C@@H]2[C@H]1/C=C/[C@H]1CCC[C@H](C)N1C', 'Muscarinic acetylcholine receptor M1 (Homo sapiens)', 6.31),
  ('CC(=O)O[C@H]1O[C@@H](C)[C@@H]2[C@H](/C=C/[C@H]3CCC[C@H](C)N3C)[C@H]3CCCC[C@@H]3C[C@H]12', 'Muscarinic acetylcholine receptor M1 (Homo sapiens)', 6.06),
  ('C[C@@H]1O[C@H](OC(=O)C(C)(C)C)[C@H]2C[C@H]3CCCC[C@@H]3[C@@H](/C=C/[C@H]3CCC[C@H](C)N3C)[C@H]21', 'Muscarinic acetylcholine receptor M1 (Homo sapiens)', 5.60),
  ('CC(=O)OC[C@H]1C[C@H]2CCCC[C@@H]2[C@@H](/C=C/[C@H]2CCC[C@H](C)N2C)[C@H]1[C@H](C)OC(C)=O', 'Muscarinic acetylcholine receptor M1 (Homo sapiens)', 6.22),
  ('C[C@@H]1OC(=O)[C@H]2C[C@H]3CCCC[C@@H]3[C@@H](/C=C/[C@H]3CCC[C@H](C)N3C)[C@@H]12', 'Muscarinic acetylcholine receptor M1 (Homo sapiens)', 6.83);

---

Selectivity by entry:
Target: Muscarinic acetylcholine receptors; M1 & M2 (Homo sapiens) (UniProt P11229+P08172)
Assay: Ratio of binding affinities towards M2 receptor to M1 receptor
Type: protein assay
observable: Selectivity

INSERT INTO assay_data (smiles_string, system_name, observable, numeric_result) VALUES
  ('C[C@@H]1O[C@H](O)[C@H]2C[C@H]3CCCC[C@@H]3[C@@H](/C=C/[C@H]3CCC[C@H](C)N3C)[C@H]21', 'Muscarinic acetylcholine receptors; M1 & M2 (Homo sapiens) (UniProt P11229+P08172)', 'Selectivity', 4.4),
  ('CC(=O)OC[C@H]1C[C@H]2CCCC[C@@H]2[C@@H](/C=C/[C@H]2CCC[C@H](C)N2C)[C@H]1[C@H](C)OC(C)=O', 'Muscarinic acetylcholine receptors; M1 & M2 (Homo sapiens) (UniProt P11229+P08172)', 'Selectivity', 2.4),
  ('CC(=O)O[C@H]1O[C@@H](C)[C@@H]2[C@H](/C=C/[C@H]3CCC[C@H](C)N3C)[C@H]3CCCC[C@@H]3C[C@H]12', 'Muscarinic acetylcholine receptors; M1 & M2 (Homo sapiens) (UniProt P11229+P08172)', 'Selectivity', 9.7);
